Biological target: Zcchc11 enzyme (Homo sapiens, UniProt Q5TAX3)
Construct: made in house; host or cells: HEK293 cells (Zcchc11); E. coli Rosetta II (LIN28A)
Sequence (Q5TAX3 212-1420): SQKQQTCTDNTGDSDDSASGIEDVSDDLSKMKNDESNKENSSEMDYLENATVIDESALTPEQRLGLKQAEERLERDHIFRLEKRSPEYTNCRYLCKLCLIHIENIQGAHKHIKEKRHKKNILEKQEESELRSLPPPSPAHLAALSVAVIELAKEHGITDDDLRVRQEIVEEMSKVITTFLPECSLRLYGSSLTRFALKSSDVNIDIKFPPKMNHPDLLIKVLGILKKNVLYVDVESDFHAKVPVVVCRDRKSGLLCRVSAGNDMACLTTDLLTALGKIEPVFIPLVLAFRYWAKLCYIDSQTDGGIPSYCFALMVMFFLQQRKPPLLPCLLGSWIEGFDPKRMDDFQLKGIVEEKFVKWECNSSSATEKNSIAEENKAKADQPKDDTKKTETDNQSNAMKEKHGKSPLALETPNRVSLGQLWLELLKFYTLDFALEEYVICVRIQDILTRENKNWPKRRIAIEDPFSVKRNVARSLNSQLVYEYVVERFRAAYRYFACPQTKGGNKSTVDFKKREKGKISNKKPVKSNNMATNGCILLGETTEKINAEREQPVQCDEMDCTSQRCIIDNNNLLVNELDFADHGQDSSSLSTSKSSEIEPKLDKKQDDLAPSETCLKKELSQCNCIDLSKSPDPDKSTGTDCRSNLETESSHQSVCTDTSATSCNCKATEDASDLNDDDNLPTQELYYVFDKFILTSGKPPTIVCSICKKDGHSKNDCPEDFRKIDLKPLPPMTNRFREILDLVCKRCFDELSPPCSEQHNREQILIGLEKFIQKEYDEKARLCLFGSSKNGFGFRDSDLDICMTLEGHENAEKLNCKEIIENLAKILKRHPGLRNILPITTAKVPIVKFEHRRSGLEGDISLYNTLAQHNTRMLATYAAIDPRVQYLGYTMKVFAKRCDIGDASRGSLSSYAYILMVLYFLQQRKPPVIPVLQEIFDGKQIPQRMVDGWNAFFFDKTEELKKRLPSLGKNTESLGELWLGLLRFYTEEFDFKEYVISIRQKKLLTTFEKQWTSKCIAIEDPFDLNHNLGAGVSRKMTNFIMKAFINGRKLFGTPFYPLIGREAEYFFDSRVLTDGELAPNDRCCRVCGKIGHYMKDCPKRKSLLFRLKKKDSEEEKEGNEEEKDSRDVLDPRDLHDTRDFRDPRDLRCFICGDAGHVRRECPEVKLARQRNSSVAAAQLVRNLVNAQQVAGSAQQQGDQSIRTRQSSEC
Assay: TUTase assay (Zcchc11 assay, Lin28a-dependent polyuridylation of pre-let-7)
Format: biochemical
Conditions: Lin28a-dependent Zcchc11 (Z11) TUTase activity; read-out: Potency Lin28a-dep Z11 IC50
We begin with a simple list: items and their reported IC50.

>>> observed_result("O=C(O)c1cn(-c2cnccn2)c2cc(N3C(=O)CC[C@@H]3COc3ccccn3)c(Cl)cc2c1=O")
"> 50 µM"

Report IC50 for CN(C)C1CN(c2ccc(-n3cc(C(=O)O)c(=O)c4cc(Cl)c(N5CCC[C@]5(C)COc5ncccc5Cl)nc43)cn2)C1
≤ 1 µM

Specify reported IC50 for the compound shown: CC1(n2cc(C(=O)O)c(=O)c3cc(Cl)c(N4C(=O)CC[C@H]4COc4ccccn4)cc32)CC1
> 50 µM

Specify IC50 for COc1ccc(F)c(-n2cc(C(=O)O)c(=O)c3cc(F)c(N4CCC[C@@H]4COc4ccccn4)cc32)c1 and stop.
1 to 10 µM

###

Biological target: Zcchc11 enzyme (Homo sapiens, UniProt Q5TAX3)
Construct: made in house; host or cells: HEK293 cells (Zcchc11); E. coli Rosetta II (LIN28A)
Experiment: TUTase assay (Zcchc11 assay, Lin28a-dependent polyuridylation of pre-let-7)
Format: biochemical
Details: Lin28a-dependent Zcchc11 (Z11) TUTase activity; read-out: Potency Lin28a-dep Z11 IC50
pIC50: −log10 of the molar value.
recorded metric: pIC50

>>> observed_result("O=C(O)c1cn(-c2ncc(O)cn2)c2cc(N3CCC[C@@H]3COc3ccccn3)c(F)cc2c1=O")
"5.00 to 6.00"

Quickly give me recorded pIC50 for CO/N=C1\C[C@H](COc2nc(OC)ccc2Cl)N(c2cc3c(cc2Cl)c(=O)c(C(=O)O)cn3-c2ccc(N3CC(N(C)C)C3)nc2)C1
≥ 6.00

Look up and report measured pIC50 for this entry: O=C(O)c1cn(-c2ccc(F)cc2)c2cc(N3CCC[C@@H]3COc3ccccn3)c(F)cc2c1=O
≥ 6.00

Please give measured pIC50 of the following entry: Cc1cccnc1OC[C@H]1CCCN1c1cc2c(cc1F)c(=O)c(C(=O)O)cn2-c1ccc(CO)cc1F
≥ 6.00

Complete the entry with pIC50 for CN(C)C1CN(c2ccc(-n3cc(C(=O)O)c(=O)c4cc(Cl)c(N5CC6(CC6)C[C@@H]5COc5ncccc5Cl)cc43)cn2)C1
≥ 6.00

Specify pIC50 for COc1ccc(Cl)c(OC[C@H]2CC(C3CCC3)CN2c2cc3c(cc2Cl)c(=O)c(C(=O)O)cn3-c2ccc(N3CC(N(C)C)C3)nc2)n1 (mixture of isomers) and stop.
≥ 6.00

Fill in reported pIC50 for this entry: Cc1ccc(Cl)c(OC[C@H]2C[C@H]3C[C@H]3N2c2cc3c(cc2Cl)c(=O)c(C(=O)O)cn3-c2ccc(N(C)C)nc2)n1
≥ 6.00

Fill in pIC50 for record O=C(O)c1cn(C2CC2)c2cc(N3CCC[C@H]3COc3ccccn3)c(F)cc2c1=O
4.30 to 5.00

Give the measured pIC50 for O=C(O)c1cn(-c2ccccc2)c2cc(N3CCC[C@@H]3COc3ncccc3Cl)c(F)cc2c1=O
≥ 6.00

Consider the molecule CN(C)C1CN(c2ccc(-n3cc(C(=O)O)c(=O)c4cc(Cl)c(N5CC(c6cnn(C)c6)C[C@@H]5COc5ncccc5Cl)cc43)cn2)C1 (mixture of isomers) and give its recorded pIC50.
≥ 6.00

Query pIC50 for Cc1cccnc1OC[C@H]1CCCN1c1cc2c(cc1F)c(=O)c(C(=O)O)cn2-c1ccc(O)c(F)c1
≥ 6.00

In one line, give reported pIC50 of the entry Cc1ccc(-n2cc(C(=O)O)c(=O)c3cc(F)c(N4CCC[C@@H]4COc4ccccn4)cc32)c(C)c1 .
5.00 to 6.00

Please list pIC50 recorded for the molecule O=C(O)c1cn(-c2cccc(F)c2F)c2cc(N3CCC[C@@H]3COc3ccccn3)c(F)cc2c1=O
5.00 to 6.00

Note down pIC50 recorded for CN(C)C1CN(c2ccc(-n3cc(C(=O)O)c(=O)c4cc(C#N)c(N5C[C@@H]6C[C@@H]6C5COc5ncccc5F)cc43)cn2)C1 (some centres unmarked)
≥ 6.00
